- testSystem: DNA topoisomerase 1 (Homo sapiens) (UniProt P11387)
- Sequence (P11387 whole entry): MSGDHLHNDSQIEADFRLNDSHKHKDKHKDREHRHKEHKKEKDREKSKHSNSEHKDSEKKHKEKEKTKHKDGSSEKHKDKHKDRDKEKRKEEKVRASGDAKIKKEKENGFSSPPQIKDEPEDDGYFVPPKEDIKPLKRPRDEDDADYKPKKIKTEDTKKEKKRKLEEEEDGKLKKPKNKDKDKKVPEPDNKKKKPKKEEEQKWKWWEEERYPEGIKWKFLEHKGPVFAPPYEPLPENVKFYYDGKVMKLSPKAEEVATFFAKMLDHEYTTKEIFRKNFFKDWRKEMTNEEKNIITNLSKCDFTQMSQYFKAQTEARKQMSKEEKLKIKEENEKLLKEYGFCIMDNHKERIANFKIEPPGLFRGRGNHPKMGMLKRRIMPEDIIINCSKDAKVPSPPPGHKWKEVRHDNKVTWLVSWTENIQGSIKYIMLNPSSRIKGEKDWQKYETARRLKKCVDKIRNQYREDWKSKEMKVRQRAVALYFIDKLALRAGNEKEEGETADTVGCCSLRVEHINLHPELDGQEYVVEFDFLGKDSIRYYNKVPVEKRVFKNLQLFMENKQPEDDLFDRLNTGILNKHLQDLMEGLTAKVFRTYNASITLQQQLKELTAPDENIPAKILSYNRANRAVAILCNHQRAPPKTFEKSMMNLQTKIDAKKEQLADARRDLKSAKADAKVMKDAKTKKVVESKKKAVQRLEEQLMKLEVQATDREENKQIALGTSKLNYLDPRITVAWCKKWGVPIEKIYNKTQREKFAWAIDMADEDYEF
- assayNotes: Inhibition of human topoisomerase-1 assessed as inhibition of relaxation of supercoiled pBR322 plasmid DNA at 100 uM measured after 1 hr by ethidium bromide staining based agarose gel electrophoresis relative to control
reportedProperty: inhibition (%)

{"compound": "CCOc1ccc2c(c1)Oc1cc(OC(=O)c3ccccc3Cl)ccc1C21c2ccccc2C(=O)N1/N=C/c1cccc(OC(=O)c2ccccc2Cl)c1 (stereo unspecified)", "endpointValue": 0}
{"compound": "CCOc1ccc2c(c1)Oc1cc(OC(=O)c3ccccc3OC)ccc1C21c2ccccc2C(=O)N1/N=C/c1ccccc1[N+](=O)[O-] (stereo unspecified)", "endpointValue": 19}
{"compound": "CCOc1ccc2c(c1)Oc1cc(O)ccc1C21c2ccccc2C(=O)N1/N=C/c1ccc(OC)c(O)c1 (stereo unspecified)", "endpointValue": 77.8}

A. CCOc1ccc2c(c1)Oc1cc(OC(=O)c3ccccc3OC)ccc1C21c2ccccc2C(=O)N1/N=C/c1ccc(Cl)cc1Cl (stereo unspecified)
B. CCOc1ccc2c(c1)Oc1cc(O)ccc1C21c2ccccc2C(=O)N1/N=C/c1ccc(OC)cc1 (stereo unspecified)
C. CCOc1ccc2c(c1)Oc1cc(O)ccc1C21c2ccccc2C(=O)N1/N=C/c1ccc(Cl)cc1Cl (stereo unspecified)
D. CCOc1ccc2c(c1)Oc1cc(OC(=O)c3ccccc3OC)ccc1C21c2ccccc2C(=O)N1/N=C/c1ccc(OC)cc1 (stereo unspecified)
Ascending by inhibition, please. Form entry: ranked labels (order as requested).
B, C, D, A

I. CCOc1ccc2c(c1)Oc1cc(OC(=O)c3ccccc3Cl)ccc1C21c2ccccc2C(=O)N1/N=C/c1ccccc1OC (stereo unspecified)
II. CCOc1ccc2c(c1)Oc1cc(OC(=O)c3ccccc3Cl)ccc1C21c2ccccc2C(=O)N1/N=C/c1ccc(OC)c(OC(=O)c2ccccc2Cl)c1 (stereo unspecified)
III. CCOc1ccc2c(c1)Oc1cc(OC(=O)c3ccccc3)ccc1C21c2ccccc2C(=O)N1/N=C/c1cccc(OC(=O)c2ccccc2)c1 (stereo unspecified)
Kindly order the items shown according to inhibition, from the highest value down. State the ranking by listing the labels in the requested order.
II, I, III

I. CCOc1ccc2c(c1)Oc1cc(OC(=O)c3ccccc3)ccc1C21c2ccccc2C(=O)N1/N=C/c1ccc(OC)c(OC(=O)c2ccccc2)c1 (stereo unspecified)
II. CCOc1ccc2c(c1)Oc1cc(OC(=O)c3ccccc3)ccc1C21c2ccccc2C(=O)N1/N=C/c1ccccc1[N+](=O)[O-] (stereo unspecified)
I would appreciate it if you could say which entry, I or II , has the lower inhibition value. In your reply, give the label of the chosen option.
II
(II: 55.4%, I: 89.4%)
